- TARGET UNDER TEST: Dipeptidyl peptidase 1 (Homo sapiens)
- Sequence (P53634 25-134 limits assumed): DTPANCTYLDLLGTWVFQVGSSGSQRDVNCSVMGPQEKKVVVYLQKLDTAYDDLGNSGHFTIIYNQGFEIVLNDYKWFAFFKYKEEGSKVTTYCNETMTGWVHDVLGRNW
- Sequence (P53634 231-394 limits assumed): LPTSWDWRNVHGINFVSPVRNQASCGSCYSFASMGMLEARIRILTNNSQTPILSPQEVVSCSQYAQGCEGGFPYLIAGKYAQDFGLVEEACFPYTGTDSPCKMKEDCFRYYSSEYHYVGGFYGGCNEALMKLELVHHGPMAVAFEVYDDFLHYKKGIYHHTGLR
- Sequence (P53634 395-463 limits assumed): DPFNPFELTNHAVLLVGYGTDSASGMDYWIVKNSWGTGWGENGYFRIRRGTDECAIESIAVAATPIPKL
- TEST DESCRIPTION: Inhibition of human cathepsin C
PROPERTY NAME: pIC50
In plain terms, pIC50 is the concentration in mol/L turned into minus its base-10 logarithm.

Reference set (4 entries):
N#Cc1ccc(-c2ccc(C[C@@H](C#N)NC(=O)[C@@H]3CCCN3)cc2)cc1 = 7.04
N#Cc1ccc(-c2ccc(C[C@@H](C#N)NC(=O)[C@@H]3CC4(CCC4)CN3)cc2)cc1 = 7.56
N#Cc1ccc(-c2ccc(C[C@@H](C#N)NC(=O)[C@@H]3CC4(CCCCC4)CN3)cc2)cc1 = 6.64
N#Cc1ccc(-c2ccc(C[C@@H](C#N)NC(=O)[C@@H]3C[C@@H]4C[C@@H]4N3)cc2)cc1 = 6.65

Attention now shifts to the item below.
Short answer please: pIC50, Dipeptidyl peptidase 1 (Homo sapiens), entry `N#Cc1ccc(-c2ccc(C[C@@H](C#N)NC(=O)[C@@H]3C[C@@H]4CCC[C@@H]4N3)cc2)cc1`
8.03
